Values were extracted from patent US20250101096A1.

- systemUnderTest: T1, human insulin-like growth factor binding protein 4 (IBP4) (human, UniProt P22692 22-258)
- T1 construct: also called IBP4 protein; IGFBP4
- T1 sequence: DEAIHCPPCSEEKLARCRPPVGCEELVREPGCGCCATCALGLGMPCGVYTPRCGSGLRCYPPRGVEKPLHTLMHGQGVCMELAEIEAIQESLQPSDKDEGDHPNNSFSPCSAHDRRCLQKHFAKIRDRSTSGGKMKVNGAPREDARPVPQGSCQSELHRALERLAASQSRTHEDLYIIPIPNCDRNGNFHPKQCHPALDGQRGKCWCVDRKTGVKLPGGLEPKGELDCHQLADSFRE
- methodDescription: AC-MS, mAb on M-PVA beads, QC2 serum, round 3 (beads reused)
parameterMeasured: ave RR
API doc: respond with a numeric literal and nothing else, no unit.

binder: anti-IBP4 antibody 3D4.E9 (antibody, mouse IgG2b, kappa, V domains shown, Mouse hybridoma mAb raised against FL IBP4; also called IBP4-3D4.E9) VH: QVQLQQSGAELVRPGASVTLSCKASGYTFTDYEMHWVKQTPVHGLEWIGAIDPETGGAAYNQKFKGKAILTADKSSSTAYMELRSLTSEDSAVYYCTRARGSSSVYYFDYWGQGTTLTVSS VL: DIVMTQSQKFMSTSVGDRVSVTCKASQNVGTNVAWYQQKPGQSPKALIYSTSYRYSGVPDRFTGSRSGTDFILTISNVQSEDLAEYFCQQYDSYPLTFGSGTKLEIKR
ave RR: 0.454
//
binder: anti-IBP4 antibody 1H9.B6 (antibody, mouse IgG1, kappa, V domains shown, Mouse hybridoma mAb raised against FL IBP4; also called IBP4-1H9.B6) VH: EVQLQQSGPELVKPGASVKISCKTSGYTFTDYYMNWVKQSHGKSLEWIGDINPNNGGAGYNQKFKGKATLTVDKSSSTAYMELRSLTSEDSAVYYCARWGWDRYFDYWGQGTTLTVSS VL: DIVMTQSQKFMSTSVGDRVSVTCKASQNVGIDVAWYQQKPGQSPKALIYSASYRSSGVPDRFTGSGSGTDFTLTINNVQSEDLAEYFCQQYNSYPLAFGSGTKLEIKR
ave RR: 0.62

Now take the following binder into account.
Task item: Tell me ave RR reported for anti-IBP4 antibody 7G11.H4 (antibody, mouse IgG1, kappa, V domains shown, Mouse hybridoma mAb raised against FL IBP4; also called IBP4-7G11.H4) VH: QVQLQQSGAELVRPGASVTLSCKASGYTFTDYEMHWVRQTPVHGLEWIGAIDTETGGPAYNQKFKGKAILTADKSSSTAYMELRSLTSEDSAVYFCTRARGSRSVYYFDNWGQGTTLTVSS VL: DIVMTQSQKFMSTSVGDRVSVTCKASQNVDTNIAWYQQKPGHSPKALIYSASYRYSGVPDRFTGSGSGTDFTLTIGNVQSEDLADYFCQQYDTYPLTFGSGTKLEIKR
Reply: 0.547
